System: LXR (THP1/LXR-Luc cells)
measurementNotes: LXR-luciferase reporter bioassay (Example 31)
Format: cell-based, human
condition: signal to noise, ratio of RLU of standard one over standard eight; 48 hours
reportedProperty: S/N
Form rule: numeric answer, no unit written next to it.

- molecule: "H1H27754P-N297Q-LP1 (conjugate) VH: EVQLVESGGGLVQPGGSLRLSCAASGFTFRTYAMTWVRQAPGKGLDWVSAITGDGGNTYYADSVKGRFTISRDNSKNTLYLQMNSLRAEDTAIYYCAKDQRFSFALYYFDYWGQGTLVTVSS VL: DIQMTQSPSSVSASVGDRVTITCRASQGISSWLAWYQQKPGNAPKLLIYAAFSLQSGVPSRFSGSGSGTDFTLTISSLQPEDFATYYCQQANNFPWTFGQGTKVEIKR"
  S/N: 17.3
- molecule: "H1H27731P-N297Q-LP1 (conjugate) VH: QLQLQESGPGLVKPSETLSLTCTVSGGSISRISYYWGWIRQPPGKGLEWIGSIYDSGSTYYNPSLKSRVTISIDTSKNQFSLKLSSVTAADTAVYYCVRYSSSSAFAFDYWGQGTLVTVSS VL: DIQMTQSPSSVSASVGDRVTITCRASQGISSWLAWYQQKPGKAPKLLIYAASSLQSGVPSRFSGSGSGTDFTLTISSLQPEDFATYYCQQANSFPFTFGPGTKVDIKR"
  S/N: 15.5

Value of S/N reported for the molecule H1H27739P-N297Q-LP1 (conjugate) VH: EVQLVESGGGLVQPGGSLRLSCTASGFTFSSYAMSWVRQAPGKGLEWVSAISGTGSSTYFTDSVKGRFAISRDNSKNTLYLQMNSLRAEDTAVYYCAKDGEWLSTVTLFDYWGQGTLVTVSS VL: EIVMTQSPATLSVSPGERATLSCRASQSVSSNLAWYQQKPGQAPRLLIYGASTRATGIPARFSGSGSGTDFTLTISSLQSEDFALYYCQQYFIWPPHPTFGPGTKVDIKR is 21.0
